- system: NHR-80 (Caenorhabditis elegans)
- Sequence (Q8ITW8 whole entry): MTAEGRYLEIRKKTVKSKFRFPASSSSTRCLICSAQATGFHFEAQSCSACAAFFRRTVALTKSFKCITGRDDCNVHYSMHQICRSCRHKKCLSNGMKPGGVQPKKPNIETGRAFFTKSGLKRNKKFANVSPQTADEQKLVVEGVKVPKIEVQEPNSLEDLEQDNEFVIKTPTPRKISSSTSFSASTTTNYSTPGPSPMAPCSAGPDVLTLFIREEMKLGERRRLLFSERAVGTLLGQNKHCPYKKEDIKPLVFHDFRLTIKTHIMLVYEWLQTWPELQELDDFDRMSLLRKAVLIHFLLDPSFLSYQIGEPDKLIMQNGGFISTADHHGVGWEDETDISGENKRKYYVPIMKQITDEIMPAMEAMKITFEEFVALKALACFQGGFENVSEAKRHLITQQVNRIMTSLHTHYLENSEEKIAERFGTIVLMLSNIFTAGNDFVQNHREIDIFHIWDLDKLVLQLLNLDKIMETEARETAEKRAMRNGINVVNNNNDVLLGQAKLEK
readout: Kd (µM)
Write the number in µM without appending the unit.

Recall the recorded Kd for CCCCCCCC/C=C\CCCCCCCC(=O)NCCO [OEA, oleoylethanolamide] with NHR-80 (Caenorhabditis elegans) and state it.
7.84
